test system: eastern black nightshade; experiment: Test C pre-/postemergence herbicide test; assay type: in vivo, Solanum ptycanthum; conditions: 250 g ai/ha; scale 0-100; preemergence
Source text: […]
Field: Plant response rating, Nightshade. Provide a value for each of the compounds that follow.

Task item: Query: Plant response rating, Nightshade; subject: CCn1nc(C(C)(C)C)cc1C(=O)Nc1cccc(OC(F)(F)C(F)F)c1 [Compound 333]
Reply: 98

Task item: Ok, now CCC1=NN(C(C)(C)C)CC1C(=O)Nc1cc(C(=O)N2CCCC2)ccc1F (racemic) [Compound 341]
Reply: 100

Task item: Ok, now CCC1=NN(C(C)(C)C)CC1C(=O)Nc1cc(C(=O)N(C)CC)ccc1F (racemic) [Compound 342]
Reply: 80

Task item: Ok, now CCc1nn(C(C)(C)CC)nc1C(=O)Nc1cccc(C(=O)N(C)C)c1 [Compound 372]
Reply: 100

Task item: Ok, now Cc1nn(C(C)(C)C)nc1C(=O)Nc1cccc(C(=O)N(C)C)c1 [Compound 391]
Reply: 95

Task item: Ok, now CCc1nc(C(C)(C)C)sc1C(=O)Nc1cccc(C(=O)NCC2CC2)n1 [Compound 215]
Reply: 100

Task item: Ok, now CCn1nc(C(C)(C)C)cc1C(=O)Nc1cncc(C(=O)N(C)C)n1 [Compound 287]
Reply: 100
